Every entry's value here was drawn from patent US8546421B1.

# GI50 per entry
- Tested on: Calu-1
measurementType: GI50 (nM)

{"compound": "C=C1CCC2C(C)(C)CCC[C@]2(C)C1CC/C(C)=C\\CC/C(C)=N/NC(N)=S (stereo partly shown)", "observedValue": 300}
{"compound": "CCc1c(O)c2c(c(O)c1O[C@H]1O[C@@H](COC(C)=O)[C@H](OC(C)=O)[C@@H](CC(C)=O)[C@@H]1OC(C)=O)C(=O)C(O[C@@H]1O[C@H](COC(C)=O)[C@@H](OC(C)=O)[C@H](OC(C)=O)[C@H]1OC(C)=O)=C(O[C@@H]1O[C@H](COC(C)=O)[C@@H](OC(C)=O)[C@H](OC(C)=O)[C@H]1OC(C)=O)C2=O", "observedValue": 2500}
{"compound": "COC(=O)c1ccc(C2c3[nH]c4ccccc4c3CC(C(=O)OC)N2C(=O)CCl)cc1 (stereo not shown)", "observedValue": 1}
{"compound": "CCOc1ccccc1-n1c(C(C)N2CCN(C(=O)COc3ccc(Cl)cc3)CC2)nc2ccccc2c1=O (stereo not shown) [Erastin, reference compound]", "observedValue": 6000}

* * *

- System: HS 578T

{"compound": "COC(=O)c1ccc(C2c3[nH]c4ccccc4c3CC(C(=O)OC)N2C(=O)CCl)cc1 (stereo not shown) [Compound 27]", "GI50, µM": 0.403}
{"compound": "CCc1c(O)c2c(c(O)c1O[C@H]1O[C@@H](COC(C)=O)[C@H](OC(C)=O)[C@@H](CC(C)=O)[C@@H]1OC(C)=O)C(=O)C(O[C@@H]1O[C@H](COC(C)=O)[C@@H](OC(C)=O)[C@H](OC(C)=O)[C@H]1OC(C)=O)=C(O[C@@H]1O[C@H](COC(C)=O)[C@@H](OC(C)=O)[C@H](OC(C)=O)[C@H]1OC(C)=O)C2=O [Compound 6]", "GI50, µM": 3.31}
{"compound": "C=C1CCC2C(C)(C)CCC[C@]2(C)C1CC/C(C)=C\\CC/C(C)=N/NC(N)=S (stereo partly shown) [Compound 36]", "GI50, µM": 0.42}
{"compound": "COCCOC(=O)C1=C(C)NC2=C(C(=O)CC(c3ccc(Cl)cc3)C2)C1c1ccccc1F (stereo not shown) [Compound 3]", "GI50, µM": 9.31}

* * *

# GI 100% per entry
- Tested on: MOLT-4
- measurementDescription: NCI60 anti-cancer screening
- conditionSummary: MOLT-4; Leukemia

{"compound": "CCc1c(O)c2c(c(O)c1O[C@H]1O[C@@H](COC(C)=O)[C@H](OC(C)=O)[C@@H](CC(C)=O)[C@@H]1OC(C)=O)C(=O)C(O[C@@H]1O[C@H](COC(C)=O)[C@@H](OC(C)=O)[C@H](OC(C)=O)[C@H]1OC(C)=O)=C(O[C@@H]1O[C@H](COC(C)=O)[C@@H](OC(C)=O)[C@H](OC(C)=O)[C@H]1OC(C)=O)C2=O", "targetOfAssay": "MOLT-4", "unitString": "µM", "resultComparator": "=", "GI 100%": 3.91}
{"compound": "COC(=O)c1ccc(C2c3[nH]c4ccccc4c3CC(C(=O)OC)N2C(=O)CCl)cc1 (stereo not shown)", "targetOfAssay": "MOLT-4", "unitString": "µM", "resultComparator": "=", "GI 100%": 2.74}
{"compound": "C=C1CCC2C(C)(C)CCC[C@]2(C)C1CC/C(C)=C\\CC/C(C)=N/NC(N)=S (stereo partly shown)", "targetOfAssay": "MOLT-4", "unitString": "µM", "resultComparator": "=", "GI 100%": 1.1}
{"compound": "COCCOC(=O)C1=C(C)NC2=C(C(=O)CC(c3ccc(Cl)cc3)C2)C1c1ccccc1F (stereo not shown)", "targetOfAssay": "MOLT-4", "unitString": "µM", "resultComparator": ">", "GI 100%": 10}

* * *

- Test system: 786-0
// assign label 1 if GI50 falls strictly below 2000 nM, else label 0 (ties count as label 0)

{"compound": "COCCOC(=O)C1=C(C)NC2=C(C(=O)CC(c3ccc(Cl)cc3)C2)C1c1ccccc1F (centres unmarked)", "groupLabel": "label 0"}
{"compound": "COC(=O)c1ccc(C2c3[nH]c4ccccc4c3CC(C(=O)OC)N2C(=O)CCl)cc1 (centres unmarked)", "groupLabel": "label 1"}
{"compound": "CCc1c(O)c2c(c(O)c1O[C@H]1O[C@@H](COC(C)=O)[C@H](OC(C)=O)[C@@H](CC(C)=O)[C@@H]1OC(C)=O)C(=O)C(O[C@@H]1O[C@H](COC(C)=O)[C@@H](OC(C)=O)[C@H](OC(C)=O)[C@H]1OC(C)=O)=C(O[C@@H]1O[C@H](COC(C)=O)[C@@H](OC(C)=O)[C@H](OC(C)=O)[C@H]1OC(C)=O)C2=O", "groupLabel": "label 0"}
{"compound": "C=C1CCC2C(C)(C)CCC[C@]2(C)C1CC/C(C)=C\\CC/C(C)=N/NC(N)=S (some centres unmarked)", "groupLabel": "label 1"}

* * *

- System: 786-0
- measurementDescription: NCI60 anti-cancer screening
- conditionSummary: 786-0; Renal Cancer
# GI 100% per entry

{"molecule": "C=C1CCC2C(C)(C)CCC[C@]2(C)C1CC/C(C)=C\\CC/C(C)=N/NC(N)=S (some centres unmarked) [Compound 36]", "resultComparator": "=", "GI 100% (µM)": 0.907}
{"molecule": "CCOc1ccccc1-n1c(C(C)N2CCN(C(=O)COc3ccc(Cl)cc3)CC2)nc2ccccc2c1=O (centres unmarked) [Erastin, reference compound]", "resultComparator": "=", "GI 100% (µM)": 4.12}
{"molecule": "CCc1c(O)c2c(c(O)c1O[C@H]1O[C@@H](COC(C)=O)[C@H](OC(C)=O)[C@@H](CC(C)=O)[C@@H]1OC(C)=O)C(=O)C(O[C@@H]1O[C@H](COC(C)=O)[C@@H](OC(C)=O)[C@H](OC(C)=O)[C@H]1OC(C)=O)=C(O[C@@H]1O[C@H](COC(C)=O)[C@@H](OC(C)=O)[C@H](OC(C)=O)[C@H]1OC(C)=O)C2=O [Compound 6]", "resultComparator": "=", "GI 100% (µM)": 5.54}
{"molecule": "COCCOC(=O)C1=C(C)NC2=C(C(=O)CC(c3ccc(Cl)cc3)C2)C1c1ccccc1F (centres unmarked) [Compound 3]", "resultComparator": ">", "GI 100% (µM)": 10}
{"molecule": "COC(=O)c1ccc(C2c3[nH]c4ccccc4c3CC(C(=O)OC)N2C(=O)CCl)cc1 (centres unmarked) [Compound 27]", "resultComparator": "=", "GI 100% (µM)": 0.473}

* * *

- System: SR
- measurementDescription: NCI60 anti-cancer screening
- conditionSummary: Leukemia
measurementType: GI 100% (µM)

{"compound": "COCCOC(=O)C1=C(C)NC2=C(C(=O)CC(c3ccc(Cl)cc3)C2)C1c1ccccc1F (stereo not shown)", "targetOfAssay": "SR", "unitString": "µM", "resultComparator": ">", "observedValue": 10}
{"compound": "C=C1CCC2C(C)(C)CCC[C@]2(C)C1CC/C(C)=C\\CC/C(C)=N/NC(N)=S (stereo partly shown)", "targetOfAssay": "SR", "unitString": "µM", "resultComparator": "=", "observedValue": 3.4}
{"compound": "CCc1c(O)c2c(c(O)c1O[C@H]1O[C@@H](COC(C)=O)[C@H](OC(C)=O)[C@@H](CC(C)=O)[C@@H]1OC(C)=O)C(=O)C(O[C@@H]1O[C@H](COC(C)=O)[C@@H](OC(C)=O)[C@H](OC(C)=O)[C@H]1OC(C)=O)=C(O[C@@H]1O[C@H](COC(C)=O)[C@@H](OC(C)=O)[C@H](OC(C)=O)[C@H]1OC(C)=O)C2=O", "targetOfAssay": "SR", "unitString": "µM", "resultComparator": "=", "observedValue": 8.4}
{"compound": "COC(=O)c1ccc(C2c3[nH]c4ccccc4c3CC(C(=O)OC)N2C(=O)CCl)cc1 (stereo not shown)", "targetOfAssay": "SR", "unitString": "µM", "resultComparator": "=", "observedValue": 1.6}

* * *

- Tested on: MOLT-4
- measurementDescription: NCI60 anti-cancer screening
- conditionSummary: Homo sapiens, MOLT-4, read-out: LC 50%
measurementType: CC50 (µM)

{"compound": "C=C1CCC2C(C)(C)CCC[C@]2(C)C1CC/C(C)=C\\CC/C(C)=N/NC(N)=S (stereo partly shown)", "resultComparator": "=", "observedValue": 7.39}
{"compound": "CCc1c(O)c2c(c(O)c1O[C@H]1O[C@@H](COC(C)=O)[C@H](OC(C)=O)[C@@H](CC(C)=O)[C@@H]1OC(C)=O)C(=O)C(O[C@@H]1O[C@H](COC(C)=O)[C@@H](OC(C)=O)[C@H](OC(C)=O)[C@H]1OC(C)=O)=C(O[C@@H]1O[C@H](COC(C)=O)[C@@H](OC(C)=O)[C@H](OC(C)=O)[C@H]1OC(C)=O)C2=O", "resultComparator": ">", "observedValue": 10}
{"compound": "COCCOC(=O)C1=C(C)NC2=C(C(=O)CC(c3ccc(Cl)cc3)C2)C1c1ccccc1F (stereo not shown)", "resultComparator": ">", "observedValue": 10}
{"compound": "COC(=O)c1ccc(C2c3[nH]c4ccccc4c3CC(C(=O)OC)N2C(=O)CCl)cc1 (stereo not shown)", "resultComparator": "=", "observedValue": 7.39}
